Collected pIC50 for Epidermal growth factor receptor (Homo sapiens, UniProt P00533) across several studies; compounds listed below.
API: returns pIC50 as number; meaning -log10 of concentration in mol/L.

{"columns": ["COMPOUND", "TESTED_TARGET", "pIC50"],
 "data": [
  ["CCC/C=C\\C(=O)Nc1cc(Nc2ncc(C#N)c(-c3cn(C)c4ccccc34)n2)c(OC)cc1N(C)CCN(C)C", "Epidermal growth factor receptor (Homo sapiens, UniProt P00533)", 6.42],
  ["C=CC(=O)Nc1cc(Nc2nccc(Nc3cn(C)c4ccccc34)n2)c(OC)cc1N(C)CCN(C)CC(=O)OC", "Epidermal growth factor receptor (Homo sapiens, UniProt P00533)", 6.34],
  ["Cc1ncnc(Nc2ccc(OCc3cccc(F)c3)c(Cl)c2)c1C#C/C=N/OCCN1CCOCC1", "Epidermal growth factor receptor (Homo sapiens, UniProt P00533)", 7.42],
  ["Nc1ncnc(Nc2ccc3c(cnn3Cc3cccc(F)c3)c2)c1/C=N/N1CCN(CCO)CC1", "Epidermal growth factor receptor (Homo sapiens, UniProt P00533)", 8.05]
]}

Observed pIC50 on Epidermal growth factor receptor (Homo sapiens, UniProt P00533) for `COc1ccc(/C=N/Nc2ncc(Cl)c(Nc3ccccc3S(=O)(=O)C(C)C)n2)cc1` , please.
6.23

Observed pIC50 on Epidermal growth factor receptor (Homo sapiens, UniProt P00533) for `CN(C)c1ccc2c(Nc3cccc(Br)c3)ncnc2c1` , please.
7.95

Observed pIC50 on Epidermal growth factor receptor (Homo sapiens, UniProt P00533) for COCCOc1cc2ncnc(Nc3cccc(Cl)c3)c2c2c1OC(COC)CO2 (stereo not given) , please.
7.99

Observed pIC50 on Epidermal growth factor receptor (Homo sapiens, UniProt P00533) for `COc1ccc(-n2cc(NC(=O)c3cccc(NS(=O)(=O)c4ccccc4)c3)cn2)cc1` , please.
4.57
